Assay: recombinant UMI read abundance after kanamycin selection (control-corrected) (log10(CPM+1)); higher = more efficient recombination; extreme values may be limits of the assay; sequences stand for … in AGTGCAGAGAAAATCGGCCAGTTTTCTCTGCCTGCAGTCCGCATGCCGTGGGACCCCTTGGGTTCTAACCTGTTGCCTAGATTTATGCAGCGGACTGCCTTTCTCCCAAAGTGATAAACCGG…AGGTTGGTTTCACT; site = the 11-nt donor;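 also: IS621 bridge recombinase in Escherichia coli cells against a fixed T5 target plasmid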
Grouping by measured recombinant UMI read abundance (log10) is done with the following cut points: band A = under 0.02, band B = from 0.02 up to 0.4, band C = 0.4 and over

| biopolymer_sequence | category_label |
| --- | --- |
| AGTTCAGCATGGACCGGTTTTCCCGGTAATCCGTATTTGAT (site AGTTCAGCTAT) | band C |
| GCTCGAGCATGGACCGGTTTTCCCGGTAATCCGTATTTGCA (site GATCGAGCTTG) | band B |
| TAATGAGCATGGACCGGTTTTCCCGGTAATCCGTATTTGGG (site TAAGGAGCTCC) | band A |
| AGATGGCCATGGACCGGTTTTCCCGGTAATCCGTATTTGTG (site AGATGGCCTCA) | band B |
| AAACGAACATGGACCGGTTTTCCCGGTAATCCGTATTTGTC (site ACACGAACTGA) | band C |
| CGGGCATCATGGACCGGTTTTCCCGGTAATCCGTATTTGCT (site CGATCATCTAG) | band A |
| GGTTACCCATGGACCGGTTTTCCCGGTAATCCGTATTTGTC (site GGTTACCCTGA) | band C |
| CTCTAAACATGGACCGGTTTTCCCGGTAATCCGTATTTGCT (site CTCTAGACTAG) | band B |
| TCCAATTCATGGACCGGTTTTCCCGGTAATCCGTATTTGCA (site TCCAATTCTGG) | band A |
| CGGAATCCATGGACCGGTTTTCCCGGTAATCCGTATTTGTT (site CGGATTCCTAA) | band A |
| GATTGAACATGGACCGGTTTTCCCGGTAATCCGTATTTGAC (site GATTGGACTGT) | band B |
| ACATCCACATGGACCGGTTTTCCCGGTAATCCGTATTTGTG (site ACATCTACTCA) | band A |
| TTAGCTGCATGGACCGGTTTTCCCGGTAATCCGTATTTGTT (site TTAGCTGCTTA) | band A |
| GTAGTCGCATGGACCGGTTTTCCCGGTAATCCGTATTTGCA (site GTAGTCGCTTG) | band C |
| AAGTAAGCATGGACCGGTTTTCCCGGTAATCCGTATTTGGA (site AAGTAAGCTTC) | band C |
| TATTGAGCATGGACCGGTTTTCCCGGTAATCCGTATTTGGG (site TATTGAGCTCC) | band A |
| CATCCATCATGGACCGGTTTTCCCGGTAATCCGTATTTGGG (site CATCCATCTCC) | band A |
| CGGTCGACATGGACCGGTTTTCCCGGTAATCCGTATTTGGG (site CCGTCGACTCC) | band B |
| TTCAACTCATGGACCGGTTTTCCCGGTAATCCGTATTTGTC (site TTCAACTCTGA) | band B |
| GCGTAAACATGGACCGGTTTTCCCGGTAATCCGTATTTGCT (site GCGGAAACTAG) | band B |
| TTGCATGCATGGACCGGTTTTCCCGGTAATCCGTATTTGGT (site CTGCATGCTAC) | band A |
| CACCGTCCATGGACCGGTTTTCCCGGTAATCCGTATTTGAT (site TACCGTCCTAT) | band A |
| GCTACTGCATGGACCGGTTTTCCCGGTAATCCGTATTTGCC (site GCTGCTGCTGG) | band B |
| CACTCCTCATGGACCGGTTTTCCCGGTAATCCGTATTTGCC (site CACTCCTCTGG) | band C |
| AGAAATGCATGGACCGGTTTTCCCGGTAATCCGTATTTGCT (site AGAAACGCTAG) | band C |
| CGTTGGGCATGGACCGGTTTTCCCGGTAATCCGTATTTGCT (site CGTTGGGCTAG) | band C |
| AGGTTCCCATGGACCGGTTTTCCCGGTAATCCGTATTTGCG (site AGGTTCCCTCT) | band A |
| ATTGCAGCATGGACCGGTTTTCCCGGTAATCCGTATTTGAG (site ATTGCAGCTCT) | band C |
| GTAGTTGCATGGACCGGTTTTCCCGGTAATCCGTATTTGCG (site GTAGTGGCTCG) | band B |
| TAGGGATCATGGACCGGTTTTCCCGGTAATCCGTATTTGCG (site TAGGTATCTCG) | band C |
| AATCATGCATGGACCGGTTTTCCCGGTAATCCGTATTTGGA (site AATGATGCTTC) | band B |
| GACAAGCCATGGACCGGTTTTCCCGGTAATCCGTATTTGGT (site GACAATCCTAC) | band A |
| TGGGTGACATGGACCGGTTTTCCCGGTAATCCGTATTTGAG (site TGGGTGACTCT) | band C |
| CCGAATTCATGGACCGGTTTTCCCGGTAATCCGTATTTGTT (site CGGAATCCTAA) | band A |
| CACCGTCCATGGACCGGTTTTCCCGGTAATCCGTATTTGAT (site GACCGTCCTAT) | band A |
